tested on: RXRa homodimer (NR concentration 180 nM); assay: PBM binding z-score (relative to random genomic background probes); higher = stronger binding; sequences stand for … in GC…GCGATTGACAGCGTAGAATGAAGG
Consider the following sequences; for each one, report its PBM binding z-score.
Numbers only.

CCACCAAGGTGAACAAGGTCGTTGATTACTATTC :: 2.07
CCTTACGGCTCACGAGGTTATAGCACGACGAGCG :: 0.925
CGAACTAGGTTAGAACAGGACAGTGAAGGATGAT :: 0.171

For each of the items listed, what is its PBM binding z-score?
1. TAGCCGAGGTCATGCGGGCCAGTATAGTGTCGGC
2. TAGCCTAGATCAGATCGGGCCAGTATACGCTATA
3. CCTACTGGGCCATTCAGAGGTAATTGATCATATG

// result
6.86
-0.577
-0.244
